# MEASUREMENT_DESCRIPTION: Solubility of the compound in water
# Assay type: physicochemical
PROPERTY_MEASURED: solubility (µg/mL)
One number for each entry, in µg/mL.

- COMPOUND: "C=Cc1c(C)c2cc3nc(cc4[nH]c(cc5nc(cc1[nH]2)C(C)(O)/C5=C\\C=N\\OCC)c(C)c4CCC(=O)NC(Cc1ccc([10B](O)O)cc1)C(=O)[O-])C(CCC(=O)NC(Cc1ccc([10B](O)O)cc1)C(=O)[O-])=C3C.[Na+].[Na+] (configuration not stated)"
  solubility (µg/mL): 100

Need solubility, item C=Cc1c(C)c2cc3nc(cc4[nH]c(cc5nc(cc1[nH]2)C(C)(O)/C5=C\C=N\OCCCNC(=O)/C=C/c1ccc([10B](O)O)cc1)c(C)c4CCC(=O)N(CC(=O)[O-])CC(=O)[O-])C(CCC(=O)N(CC(=O)[O-])CC(=O)[O-])=C3C.[Na+].[Na+].[Na+].[Na+] (configuration not stated)
100
